# measurement target: E. coli TEM1 β-lactamase (Escherichia coli, UniProt P62593)
# Construct: The β-lactamases are isolated from bacterial strains resistant to penicillins and cephalosporins; endogenous in cells
# Sequence (P62593 24-286 limits assumed): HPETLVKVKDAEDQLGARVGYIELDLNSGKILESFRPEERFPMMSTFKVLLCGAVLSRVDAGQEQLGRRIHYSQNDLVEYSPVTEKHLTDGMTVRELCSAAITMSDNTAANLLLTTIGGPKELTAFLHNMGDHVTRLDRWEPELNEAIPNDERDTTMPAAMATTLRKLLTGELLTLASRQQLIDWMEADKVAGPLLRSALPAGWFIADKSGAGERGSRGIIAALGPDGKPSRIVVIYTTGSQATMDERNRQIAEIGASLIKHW
# experimental protocol: β-lactamase inhibiting activity on isolated enzyme (Nitrocefin hydrolysis), TEM1
# cond: 5 min pre-incubation, 100 μM Nitrocefin, pH 7.0, 37° C., mean of at least 2 experiments, read-out: IC50 enzyme inhibition
Here, each record is paired with measured IC50 data.
Enter your answer as a number in nM; do not include the unit.

Here are 2 compounds together with their reported answers.
>  <compound>
NC(=O)[C@@H]1CC[C@@H]2CN1C(=O)N2OC(F)C(=O)O (mixture of isomers)

>  <measurement target>
E. coli TEM1 β-lactamase (Escherichia coli, UniProt P62593)

>  <IC50 [nM]>
2

$$$$
>  <compound>
NC(=O)[C@@H]1CC[C@@H]2CN1C(=O)N2OCC(=O)O [Example 1, reference compound]

>  <measurement target>
E. coli TEM1 β-lactamase (Escherichia coli, UniProt P62593)

>  <IC50 [nM]>
720

$$$$

// moving on: another record for IC50
In one line, give reported IC50 of the entry NC(=O)[C@@H]1CC[C@@H]2CN1C(=O)N2OC(F)(F)C(=O)O . 0.8
